Please provide measured protein stability index for the entries that follow.
# Procedure text: protein stability index of a GFP-peptide fusion (yeast GPS) (PSI 1-4); higher = more stable; sorted into four equal gates, so the index is relative within each strain
# Recorded conditions: pdr5∆

biopolymer_sequence="LQRDLFIRLPHWPLNWY [RGR1]" val=2.15
biopolymer_sequence="ELDQFWQEYSSVFKGGM [SRP14]" val=2.66
biopolymer_sequence="SLYIFFTTLLESKQDGL [YML103C/NUP188]" val=1.42

Field: protein stability index. Fill in for each record below.
1. KRVDFSGRTVISPDPNL [RPO31]
2. YMVSRAIRDGVIEAKIN [RPN3]
3. EIENLDKELRKTKFQYK [YIL149C/MLP2]
4. EVEVSTRDLFDLEKDRA [RPO31]
5. QTQREKAPLQPNSERET [IRR1]
6. TPYNIDRLTQLVRNGPN [RPO21]
7. PSSQSQNDTPMFKLGNF [YLR018C/POM34]
8. TTSVDVMLKGIVTALLE [SRP54]

1: 2.65; 2: 3.28; 3: 3.02; 4: 3.37; 5: 3.2; 6: 3.19; 7: 2.8; 8: 1.22

###

# Procedure text: protein stability index of a GFP-peptide fusion (yeast GPS) (PSI 1-4); higher = more stable; sorted into four equal gates, so the index is relative within each strain
# Recorded conditions: san1∆
Please provide measured protein stability index for the entries that follow.

biopolymer_sequence="TEPDKPAFSFNSSVGNK [YJL041W/NSP1]" readout_name="protein stability index" val=3.09
biopolymer_sequence="NDANITSNKEGFNSIWK [SSN2]" readout_name="protein stability index" val=3.3
biopolymer_sequence="DDDDDEDEEEEEEVTDQ [QCR6]" readout_name="protein stability index" val=3.4
biopolymer_sequence="DEFIKTHEDLPKEVDGL [IRR1]" readout_name="protein stability index" val=3.04
biopolymer_sequence="RIQLMNDFTTKLINIKK [MED1]" readout_name="protein stability index" val=2.84

Field: protein stability index. Fill in for each record below.
1. RRRREGKTDYYQRKRLV [RPL5]
2. SSQFVRLASEPGIISIT [YMR129W/POM152]
3. PTSDEPVPESAGKADTS [SRB4]
4. DSSSQCIVDFTNPKLKS [YMR129W/POM152]
5. QRILEVLGTPDQKIWPY [SSN3]
6. NAISLQLKYDTSVQEKE [YIL149C/MLP2]
7. YRCFAQLELRQLNASIS [RRI2]

3.13
1.99
2.88
2.33
1.76
2.75
3.12

###

# Procedure text: protein stability index of a GFP-peptide fusion (yeast GPS) (PSI 1-4); higher = more stable; sorted into four equal gates, so the index is relative within each strain
# Recorded conditions: doa10∆
Would you please tag the item class 1 when its protein stability index is 3 or above, and class 0 when it is below?

// below: answered sequences
biopolymer_sequence="KEFKGIKVTVQLKIQNR [RPL12A]" category_label="class 0"
biopolymer_sequence="MAFRKSNVYLSLVNSYI [COB]" category_label="class 0"
biopolymer_sequence="LKFNSTEYRGTLVSTDN [SMX3]" category_label="class 0"

Textbook exercise: given the entry HPWEQAKEVKVLYHTSG [PRP8] , state whether its protein stability index is greater than or equal to 3.
class 0

Textbook exercise: given the entry ENPTPEKGNAKMIDFAT [SIR3] , state whether its protein stability index is greater than or equal to 3.
class 1

Textbook exercise: given the entry LEACIVRIMKAKRNLPH [CDC53] , state whether its protein stability index is greater than or equal to 3.
class 0

# credit: the supplement of paper PMC9732359
